Source listed as paper PMC3961306.

# target.or.system: panel of more than 300 wild-type and mutant kinases (313 kinase panel) (Homo sapiens, UniProt P42681)
# Sequence (P42681 1-527): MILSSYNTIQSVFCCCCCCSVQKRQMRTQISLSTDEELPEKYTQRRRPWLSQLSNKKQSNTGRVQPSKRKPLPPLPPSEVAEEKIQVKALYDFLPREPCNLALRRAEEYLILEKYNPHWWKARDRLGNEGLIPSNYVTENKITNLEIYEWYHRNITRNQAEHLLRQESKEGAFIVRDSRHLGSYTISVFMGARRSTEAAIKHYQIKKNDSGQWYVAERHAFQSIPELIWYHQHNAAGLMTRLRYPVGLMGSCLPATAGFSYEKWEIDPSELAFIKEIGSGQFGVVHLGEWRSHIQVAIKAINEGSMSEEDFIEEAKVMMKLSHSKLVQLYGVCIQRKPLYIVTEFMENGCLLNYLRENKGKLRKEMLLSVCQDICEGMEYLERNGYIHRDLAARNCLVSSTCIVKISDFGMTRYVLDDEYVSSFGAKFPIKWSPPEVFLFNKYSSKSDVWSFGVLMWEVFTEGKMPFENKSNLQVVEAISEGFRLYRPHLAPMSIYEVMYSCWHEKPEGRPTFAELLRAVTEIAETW
# test.name: Kinase profiling in a biochemical assay panel (mobility shift assays and ELISA), %-inhibition at 1 μM; selectivity entropy
# condition.label: kinase TXK; compound at 1 μM
Assign %-inhibition of TXK to each entry below.
Response body: numeric value in %, unit text excluded.

For the compound O=S(=O)(c1cccc2cnccc12)N1CCCNCC1 [fasudil] , give its reported %-inhibition of TXK. 1

Supply reported %-inhibition of TXK belonging to this compound: CO[C@H]1C[C@@H]2CC[C@@H](C)[C@@](O)(O2)C(=O)C(=O)N2CCCC[C@H]2C(=O)O[C@H]([C@H](C)C[C@@H]2CC[C@@H](OC(=O)C(C)(CO)CO)[C@H](OC)C2)CC(=O)[C@H](C)/C=C(\C)[C@@H](O)[C@@H](OC)C(=O)[C@H](C)C[C@H](C)/C=C/C=C/C=C/1C [temsirolimus] -7

State its %-inhibition of TXK: CC(C)(C)c1nc(-c2cccc(NS(=O)(=O)c3c(F)cccc3F)c2F)c(-c2ccnc(N)n2)s1 [dabrafenib] 18

Identify %-inhibition of TXK associated with the compound Cc1ccc(Nc2nccc(N(C)c3ccc4c(C)n(C)nc4c3)n2)cc1S(N)(=O)=O [pazopanib] 52

Annotate the compound Cc1cn(-c2cc(NC(=O)c3ccc(C)c(Nc4nccc(-c5cccnc5)n4)c3)cc(C(F)(F)F)c2)cn1 [nilotinib] with its measured %-inhibition of TXK. 16

For the compound CCCS(=O)(=O)Nc1ccc(F)c(C(=O)c2c[nH]c3ncc(-c4ccc(Cl)cc4)cc23)c1F [vemurafenib] , report %-inhibition of TXK. 5

Give the reported value of %-inhibition of TXK for this record: COc1cc2nccc(Oc3ccc(NC(=O)C4(C(=O)Nc5ccc(F)cc5)CC4)cc3)c2cc1OC [cabozantinib] 18

State its %-inhibition of TXK for this compound: COc1cc(Nc2c(C#N)cnc3cc(OCCCN4CCN(C)CC4)c(OC)cc23)c(Cl)cc1Cl [bosutinib] 72

Provide measured %-inhibition of TXK value, entry: C[C@@H](Oc1cc(-c2cnn(C3CCNCC3)c2)cnc1N)c1c(Cl)ccc(F)c1Cl [crizotinib] 39

Please report %-inhibition of TXK for the following compound: CNC(=O)c1cc(Oc2ccc(NC(=O)Nc3ccc(Cl)c(C(F)(F)F)c3)c(F)c2)ccn1 [regorafenib] -2.18

Tell me measured %-inhibition of TXK for CC(=O)Nc1cccc(-n2c(=O)n(C3CC3)c(=O)c3c(Nc4ccc(I)cc4F)n(C)c(=O)c(C)c32)c1 [trametinib] please. -4.66

Please indicate %-inhibition of TXK recorded for N#CC[C@H](C1CCCC1)n1cc(-c2ncnc3[nH]ccc23)cn1 [ruxolitinib] 10

# return recorded %-inhibition of TXK for entry CO[C@H]1C[C@@H]2CC[C@@H](C)[C@@](O)(O2)C(=O)C(=O)N2CCCC[C@H]2C(=O)O[C@H]([C@H](C)C[C@@H]2CC[C@@H](OCCO)[C@H](OC)C2)CC(=O)[C@H](C)/C=C(\C)[C@@H](O)[C@@H](OC)C(=O)[C@H](C)C[C@H](C)/C=C/C=C/C=C/1C [everolimus] -4.36

For the compound Cc1ccc(C(=O)Nc2ccc(CN3CCN(C)CC3)c(C(F)(F)F)c2)cc1C#Cc1cnc2cccnn12 [ponatinib] , report %-inhibition of TXK. 98

Look up %-inhibition of TXK of COc1cc2c(Nc3ccc(Br)cc3F)ncnc2cc1OCC1CCN(C)CC1 [vandetanib] and report it. 60
